Property: NanoBRET Fold Response; scope: individual molecules
# TESTED_TARGET: F2RL2 (Homo sapiens, UniProt O00254)
# Construct: purchased Promega (in-house HiBiT-GPCR construct library, NanoBRET)
# Sequence (O00254 22-374): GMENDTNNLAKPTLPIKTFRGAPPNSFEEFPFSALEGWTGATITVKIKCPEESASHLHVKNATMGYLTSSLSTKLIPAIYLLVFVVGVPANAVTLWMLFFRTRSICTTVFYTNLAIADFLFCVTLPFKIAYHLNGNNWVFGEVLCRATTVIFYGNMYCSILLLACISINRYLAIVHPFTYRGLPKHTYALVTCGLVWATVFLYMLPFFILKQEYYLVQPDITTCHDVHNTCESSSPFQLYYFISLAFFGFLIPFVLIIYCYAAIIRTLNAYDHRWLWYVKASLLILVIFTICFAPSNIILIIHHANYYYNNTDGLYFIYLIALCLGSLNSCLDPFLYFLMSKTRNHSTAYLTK
# ASSAY_OVERVIEW: NanoBRET screen HiBiT-F2RL2 in HEK293
# Assay type: binding
# PROTOCOL_CONDITIONS: F2RL2; tracer 1μM

>  <MOLECULE>
CC(C)N(CC[C@H](c1ccccc1)c1cc(CCNC(=O)c2ccc(CNC(=O)CCc3ccc4n3[B-](F)(F)[N+]3=C(c5ccc[nH]5)C=CC3=C4)cc2)ccc1O)C(C)C

>  <NanoBRET Fold Response>
1.04

$$$$
>  <MOLECULE>
CCCn1c(=O)c2[nH]c(-c3ccc(OCC(=O)NCCNC(=O)CCOCCNC(=O)c4ccc(CNC(=O)CCc5ccc6n5[B-](F)(F)[N+]5=C(c7ccc[nH]7)C=CC5=C6)cc4)cc3)nc2n(CCC)c1=O

>  <NanoBRET Fold Response>
1.04

$$$$
>  <MOLECULE>
Cc1cc2c(s1)Nc1ccccc1N=C2N1CCN(CCCNC(=O)CCOCCOCCOCCOCCNC(=O)CCc2ccc3n2[B-](F)(F)[N+]2=C(c4ccc[nH]4)C=CC2=C3)CC1

>  <NanoBRET Fold Response>
1.01

$$$$
>  <MOLECULE>
O=C(CCc1ccc2n1[B-](F)(F)[N+]1=C(c3ccc[nH]3)C=CC1=C2)NCc1ccc(C(=O)NCCOCCC(=O)N[C@@H]2CC[C@@]3(O)[C@H]4Cc5ccc(O)c6c5[C@@]3(CCN4CC3CC3)[C@H]2O6)cc1 [Naltrexone-3-NB590]

>  <NanoBRET Fold Response>
1.02

$$$$
>  <MOLECULE>
COc1ccccc1N1CCN(CCCCN2C(=O)c3ccc(CNC(=O)CCOCCOCCOCCOCCNC(=O)CCc4ccc5n4[B-](F)(F)[N+]4=C(c6ccc[nH]6)C=CC4=C5)cc3C2=O)CC1

>  <NanoBRET Fold Response>
1.01

$$$$

---

# TESTED_TARGET: MLNR (Homo sapiens, UniProt O43193)
# Construct: purchased Promega (in-house HiBiT-GPCR construct library, NanoBRET)
# Sequence (O43193 whole entry): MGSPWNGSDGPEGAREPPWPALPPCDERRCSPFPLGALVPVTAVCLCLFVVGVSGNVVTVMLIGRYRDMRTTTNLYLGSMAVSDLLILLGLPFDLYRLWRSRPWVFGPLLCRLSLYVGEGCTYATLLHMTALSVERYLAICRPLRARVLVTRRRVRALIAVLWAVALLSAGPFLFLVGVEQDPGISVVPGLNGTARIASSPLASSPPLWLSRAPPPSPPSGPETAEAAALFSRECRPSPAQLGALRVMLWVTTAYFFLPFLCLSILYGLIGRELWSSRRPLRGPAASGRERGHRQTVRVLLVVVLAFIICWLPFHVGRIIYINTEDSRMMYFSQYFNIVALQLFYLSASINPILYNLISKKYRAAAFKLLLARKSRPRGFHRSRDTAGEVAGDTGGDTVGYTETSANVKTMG
# ASSAY_OVERVIEW: NanoBRET screen HiBiT-MLNR in HEK293
# Format: binding
# PROTOCOL_CONDITIONS: MLNR; tracer 0.1μM
Would you please tag the item 1 when its NanoBRET Fold Response is 1 or above, and -1 when it is below?

>  <COMPOUND>
Cc1nc2n(c(=O)c1CCN1CCC(c3noc4cc(F)ccc34)CC1)CCCC2OC(=O)NCCOCCOCCOCCOCCNC(=O)CCc1ccc2n1[B-](F)(F)[N+]1=C(c3ccc[nH]3)C=CC1=C2 (centres unmarked)

>  <TESTED_TARGET>
MLNR (Homo sapiens, UniProt O43193)

>  <ASSIGNED_LABEL>
-1

$$$$
>  <COMPOUND>
COc1ccccc1N1CCN(CCCCN2C(=O)c3ccc(CNC(=O)CCOCCNC(=O)c4ccc(CNC(=O)CCc5ccc6n5[B-](F)(F)[N+]5=C(c7ccc[nH]7)C=CC5=C6)cc4)cc3C2=O)CC1

>  <TESTED_TARGET>
MLNR (Homo sapiens, UniProt O43193)

>  <ASSIGNED_LABEL>
1

$$$$
>  <COMPOUND>
N#CN=C(NCCCOc1cccc(CN2CCCCC2)c1)NCCNC(=O)CCOCCOCCOCCOCCNC(=O)CCc1ccc2n1[B-](F)(F)[N+]1=C(c3ccc[nH]3)C=CC1=C2

>  <TESTED_TARGET>
MLNR (Homo sapiens, UniProt O43193)

>  <ASSIGNED_LABEL>
-1

$$$$
>  <COMPOUND>
O=C(CCOCCOCCOCCOCCNC(=O)CCc1ccc2n1[B-](F)(F)[N+]1=C(c3ccc[nH]3)C=CC1=C2)NCCCN1CCN(C2=Nc3ccccc3Oc3ccc(Cl)cc32)CC1

>  <TESTED_TARGET>
MLNR (Homo sapiens, UniProt O43193)

>  <ASSIGNED_LABEL>
1

$$$$
